These entries and their values trace back to PubChem BioAssay AID179.

Tested on: CEM cells HIV-1 protection, formazan growth assay
assaySummary: NCI AIDS Antiviral Assay
conditionInfo: measured here: growth of uninfected CEM cells
assayEndpoint: IC50 (µM)
One number for each entry, in µM.

Below, each entry is followed by its recorded IC50 result.
> print(dat)
                                smilesinput                               studytarget  assayendpoint  recordednumber
1  CN(C)Cc1cc(C(=O)/C=C/c2c(Cl)cccc2Cl)cc(CN(C)C)c1O  CEM cells HIV-1 protection, formazan growth assay           IC50            2.69
2  O=C(N/N=C/c1ccc(Br)cc1)N/N=C/c1ccc(Br)cc1  CEM cells HIV-1 protection, formazan growth assay           IC50            31.6

Now look at this one.
[ask] What does the data say about its IC50? Entry: CCN(CC)CCOc1ccc(/C(C#N)=C/c2ccc(C(F)(F)F)cc2)cc1
[reply] 1.23

====

Tested on: CEM cells HIV-1 protection, formazan growth assay
assaySummary: NCI AIDS Antiviral Assay
Description: The ability of compounds to protect human CEM cells from HIV-1 infection is measured as a screen for new compounds capable of inhibiting the HIV virus. Five concentrations of drug were tested on uninfected and infected cells and cell growth was measured using a soluble formazan assay. […] Compounds that provided at least 50% protection were retested. Compounds that provided at least 50% protection on retest were listed as moderately active. […]
Answer each item with its documented EC50.

compound	result
CCCc1cc(=O)oc2c3c(c4c(c12)OC(C)(C)C=C4)O[C@H](C)[C@@H](C)[C@H]3O[Si](C)(C)C(C)(C)C	> 200 µM
COc1ccc2nc(/C(N)=C\C#N)ccc2c1	> 200 µM
C1CSCCSCCS1	> 39.8 µM

Each compound below has a reported value. Please supply its EC50.
1. CCOc1ccc(NC(=O)C(=O)C2C(=O)Nc3ccccc3S2=O)cc1 (stereo unspecified)
2. O=C(Nc1cccnc1)c1ccccc1[Se][Se]c1ccccc1C(=O)Nc1cccnc1
3. COC(=O)NC1C(C)OC(OC2C/C=C(/C)C3C=CC4C(OC5CC(OC6CCC(OC7CC(O)C(OC8CCC(O)C(C)O8)C(C)O7)C(C)O6)C(OC(C)=O)C(C)O5)C(C)CC(C)C4C3(C)/C(O)=C3/C(=O)OC4(CC(C=O)=CC(O)C4/C=C\2C)C3=O)CC1(C)[N+](=O)[O-] (stereo unspecified)
4. CCOP(=O)(C=C=C(C)C)OCC
5. CC1OC(OCC2OC(Oc3ccc(C4CC(=O)c5c(O)cc(O)cc5O4)cc3O)C(O)C(O)C2O)C(O)C(O)C1O (stereo unspecified)
6. Nc1ccc(S(=O)(=O)Nc2nccs2)cc1
7. Nc1ncnc2c1ncn2C1COC(CO)C1CO (stereo unspecified)
8. CNC(=O)N(Cc1ccccc1)C[C@@H]1CCCN1C(C)=O

[reply]
["> 50.1 µM", "3.24 µM", "> 186 µM", "> 200 µM", "> 200 µM", "> 200 µM", "87.1 µM", "> 200 µM"]

====

Tested on: CEM cells HIV-1 protection, formazan growth assay
assaySummary: NCI AIDS Antiviral Assay
assayEndpoint: EC50

Below, each entry is followed by its recorded EC50 result.
> print(dat)
                                   molecule     result
1  O=c1c2nc(-c3ccccc3)oc2n(-c2ccccc2)c(=O)n1-c1ccccc1   > 200 µM
2  COc1cc(Nc2nc3cc(C(F)(F)F)ccc3nc2C)cc(OC)c1OC  > 60.3 µM
3  COc1ccc(N2C(=O)C(=O)N(c3ccccc3[N+](=O)[O-])C2=S)cc1   > 200 µM
4  O=C(C1OC1c1cccc([N+](=O)[O-])c1)C12CC3CC(CC(C3)C1)C2 (stereo not given)   > 200 µM

[ask] What does the data say about its EC50? Entry: NC(=O)C(=CNC(=S)c1ccncc1)C(N)=O
[reply] > 200 µM

====

Test system: CEM cells HIV-1 protection, formazan growth assay
assaySummary: NCI AIDS Antiviral Assay
pEC50: −log10 of the molar value.
Answer each item with its documented pEC50.

compound	assayEndpoint	result
CC(=O)N(CCCCNC(=O)C(F)(F)F)CCCNC(=O)C(F)(F)F	pEC50	< 3.70
CCN(CC)CCOCCn1c2c(c3ccccc31)CCCC2	pEC50	< 3.70
C[C@@]1(CO)[C@H](O)CC[C@@]2(C)[C@H]1CC[C@H]1C[C@@H]3C[C@@]12CC[C@@]3(O)COC(=O)CN	pEC50	< 3.24
CC1=CC(C)(C)N=C2SC(c3ccc(Cl)cc3)=NN12	pEC50	< 4.61
N#Cc1ccc(Oc2nc3ccccc3nc2C(=O)O)cc1	pEC50	< 3.70
CCn1c(=O)c2c3cc(O)ccc3oc2c2ccc(O)cc21	pEC50	< 3.70

Each compound below has a reported value. Please supply its pEC50.
1. CC12CCC(O1)C1C(=O)OC(=O)C12 (stereo unspecified)
2. C/C(C=O)=C\c1ccc([N+](=O)[O-])cc1
3. C=C(C)C1CCC2(CO)C(O)CC3(C)C(CCC4C5(C)CCC(O)C(C)(C)C5CCC43C)C12 (stereo unspecified)
4. NC(CSCCSCC(N)C(=O)O)C(=O)O (stereo unspecified)

[reply]
1: < 3.31; 2: < 3.87; 3: < 4.00; 4: < 5.00

====

Tested on: CEM cells HIV-1 protection, formazan growth assay
assaySummary: NCI AIDS Antiviral Assay
conditionInfo: measured here: growth of uninfected CEM cells
Procedure: The ability of compounds to protect human CEM cells from HIV-1 infection is measured as a screen for new compounds capable of inhibiting the HIV virus. Five concentrations of drug were tested on uninfected and infected cells and cell growth was measured using a soluble formazan assay. […] Compounds that provided at least 50% protection were retested. Compounds that provided at least 50% protection on retest were listed as moderately active. […]
pIC50: −log10 of the molar value. Where a SMILES comes first, the peptide text is derived from it. The star is where a group is joined. Cbz = O=C(OCc1ccccc1)*
Answer each item with its documented pIC50.

compound	studyTarget	assayEndpoint	result
Clc1ccc2nc3occ(Br)c3cc2c1	CEM cells HIV-1 protection, formazan growth assay	pIC50	< 4.88
CCOC(=O)C(OCC1CC=CCC1)Sc1ccccc1 (configuration not stated)	CEM cells HIV-1 protection, formazan growth assay	pIC50	< 4.63
CC1=N/C(=C\c2ccccc2C)C(=O)O1	CEM cells HIV-1 protection, formazan growth assay	pIC50	< 2.91
COC(=O)C(NC(=O)C(C)NC(=O)C1CCCN1C(=O)CNC(=O)C(CO)NC(=O)C(NC(=O)OCc1ccccc1)C(C)O)C(C)O (configuration not stated) (Cbz-TSGPAT-OMe; configuration not given here)	CEM cells HIV-1 protection, formazan growth assay	pIC50	< 3.44
Cc1cn(C2CCC(/C=N\O)O2)c(=O)[nH]c1=O (configuration not stated)	CEM cells HIV-1 protection, formazan growth assay	pIC50	< 3.70

Each compound below has a reported value. Please supply its pIC50.
1. Nc1[nH]c(=O)nc2snnc12
2. C[C@@]12CCC[C@H]1[C@@H]1CC=C3C[C@@H](S)CC[C@]3(C)[C@H]1CC2
3. N#CCC(=O)N1CCCOCCC1
4. CCN1CCNc2c3cc(OC)ccc3nc3c([N+](=O)[O-])ccc1c23

[reply]
5.32
4.18
< 2.86
6.96

Each compound below has a reported value. Please supply its pIC50.
1. CCC1(CC2CCCN(C)C2)c2ccccc2Sc2ccccc21 (configuration not stated)
2. C/C(C(=O)O)=C(\C)c1ccccc1

[reply]
1. 4.96
2. < 3.70

[ask] What does the data say about its pIC50? Entry: C1=C(c2ccccc2)Nc2ccccc2N=C1c1ccccc1
[reply] < 3.70

====

Test system: CEM cells HIV-1 protection, formazan growth assay
assaySummary: NCI AIDS Antiviral Assay;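 active = compounds giving half or more protection of infected cells from virus-caused growth loss, again on retest; inactive = the rest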
Choose one outcome from this list and give only that: active, inactive

[ask] Hi, sorry to bother you, what did the test record for CCOC(=O)c1[nH]c(Br)c(-c2ccc(OC)c(OC)c2)c1Br ?
[reply] inactive

[ask] Hi, sorry to bother you, what did the test record for CCO[C@@]12CCC3CC4CC[C@@](OCC)(O1)C4C32 (stereo partly specified) ?
[reply] inactive

[ask] Hi, sorry to bother you, what did the test record for Cc1ccc(S(=O)(=O)/N=C2/N(C)CCCS2(=O)=O)cc1 ?
[reply] inactive

[ask] Hi, sorry to bother you, what did the test record for COc1cc(CNC2=NCCC2)cc(OC)c1OC ?
[reply] inactive

[ask] Hi, sorry to bother you, what did the test record for C=C1CC(CN2CCC(=O)NC2=O)(c2ccccc2)OC1=O (stereo unspecified) ?
[reply] inactive

[ask] Hi, sorry to bother you, what did the test record for O=NNc1ccc(SSc2ccc(NN=O)cc2)cc1 ?
[reply] inactive

[ask] Hi, sorry to bother you, what did the test record for CNc1ncnc2c1cnn2CCCCO ?
[reply] inactive

[ask] Hi, sorry to bother you, what did the test record for O=C(O)/C=C\SCCCC(=O)O ?
[reply] inactive
